biological target: IFN-αJ1 (human, UniProt P01567 24-189); assay: cell-based or functional assay
IC50 (pM), ISRE assay by entry:
Provide the reading as a plain figure in pM.

Please review the entries below; each comes with its answer.
Task: Return IC50 (pM), ISRE assay for the following binder: IFWM3400 (antibody, IgG1, V domains shown) VH: EVQLVQSGAEVKKPGESLKISCKGSGYSFTSYWIGWVRQMPGKGLEWMGIIDPSDSDTRYSPSFQGQVTISADKSISTAYLQWSSLKASDTAMYYCARHPGLAWAPDFDYWGQGTLVTVSS VL: DIQMTQSPSSLSASVGDRVTITCRASQSIADFLNWYQQKPGKAPKLLIYFASSLQSGVPSRFSGSGSGTDFTLTISSLQPEDFATYYCQQSHSFPLTFGQGTKVEIK
Output: 154

Task: Give a short answer stating reported IC50 (pM), ISRE assay for IFWM3322 (antibody, IgG1, V domains shown) VH: EVQLVQSGAEVKKPGESLKISCKGSGYSFTSYWIGWVRQMPGKGLEWMGIIDPSDSDTRYSPSFQGQVTISADKSISTAYLQWSSLKASDTAMYYCARHPGLNWAPDFDYWGQGTLVTVSS VL: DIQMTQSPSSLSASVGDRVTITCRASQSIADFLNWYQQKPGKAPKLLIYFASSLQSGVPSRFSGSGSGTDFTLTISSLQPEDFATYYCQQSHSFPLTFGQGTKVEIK .
Output: 169

Next:
Task: Input IFWM3308 (antibody, IgG1, V domains shown) VH: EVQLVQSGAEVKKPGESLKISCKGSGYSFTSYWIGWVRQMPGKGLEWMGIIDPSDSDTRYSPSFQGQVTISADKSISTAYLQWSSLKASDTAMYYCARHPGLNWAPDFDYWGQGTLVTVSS VL: DIQMTQSPSSLSASVGDRVTITCRASQSIAEFLNWYQQKPGKAPKLLIYFASSLQSGVPSRFSGSGSGTDFTLTISSLQPEDFATYYCQQSIDFPLTFGQGTKVEIK , output reported IC50 (pM), ISRE assay.
Output: 363
